assayName: Lipophilicity, log D of the compound at pH 7.0 by HPLC analysis
Type: physicochemical
conditionSummary: buffer
Provide the reported logD of each item.
Keep it simple and answer with nothing but the number.

Identify measured logD corresponding to O=C(CN1C(=O)C2(CCCC2)NC[C@H]1c1cc(F)cc(F)c1)Nc1ccc2c(c1)C[C@@]1(C2)C(=O)Nc2ncccc21 2.35

Identify measured logD corresponding to CN1C[C@@](C)(c2cc(F)cc(F)c2)N(CC#Cc2cnc3c(c2)C[C@@]2(C3)C(=O)Nc3ncccc32)C(=O)C12CCCC2 3.41

Identify measured logD corresponding to CN1C[C@@](C)(c2cc(F)cc(F)c2)N(C/C=C/c2ccc3c(c2)C[C@@]2(C3)C(=O)Nc3ncccc32)C(=O)C12CCCC2 4.15

Identify measured logD corresponding to CN1C[C@@](C)(c2cc(F)cc(F)c2)N(C/C=C/c2cnc3c(c2)C[C@@]2(C3)C(=O)Nc3ncccc32)C(=O)C12CCCC2 3.36

Identify measured logD corresponding to CN1C[C@@](C)(c2cc(F)cc(F)c2)N(CC(=O)Nc2ccc3c(c2)C[C@@]2(C3)C(=O)Nc3ncccc32)C(=O)C12CCCC2 3.39

Identify measured logD corresponding to CN1C[C@@](C)(c2cc(F)cc(F)c2)N(CCCc2cnc3c(c2)C[C@@]2(C3)C(=O)Nc3ncccc32)C(=O)C12CCCC2 3.16

Identify measured logD corresponding to CN1C[C@@](C)(c2cc(F)cc(F)c2)N(CCCc2ccc3c(c2)C[C@@]2(C3)C(=O)Nc3ncccc32)C(=O)C12CCCC2 4.33

Identify measured logD corresponding to CN1C[C@@](C)(c2cc(F)cc(F)c2)N(CC#Cc2ccc3c(c2)C[C@@]2(C3)C(=O)Nc3ncccc32)C(=O)C12CCCC2 4.11

----------
System: CGRP receptor (Macaca mulatta)
assayName: Ratio of drug uptake in iv dosed rhesus monkey cerebellum to drug uptake in iv dosed rhesus monkey white matter
conditionSummary: in vivo
recordedEndpoint: Ratio

Identify measured Ratio corresponding to CN1C[C@@](C)(c2cc(F)cc(F)c2)N(CCCc2ccc3c(c2)C[C@@]2(C3)C(=O)Nc3ncccc32)C(=O)C12CCCC2 1.3

Identify measured Ratio corresponding to CN1C[C@@](C)(c2cc(F)cc(F)c2)N(C/C=C/c2ccc3c(c2)C[C@@]2(C3)C(=O)Nc3ncccc32)C(=O)C12CCCC2 1.4

Identify measured Ratio corresponding to CN1C[C@@](C)(c2cc(F)cc(F)c2)N(CC#Cc2cnc3c(c2)C[C@@]2(C3)C(=O)Nc3ncccc32)C(=O)C12CCCC2 1.9

Identify measured Ratio corresponding to CN1C[C@@](C)(c2cc(F)cc(F)c2)N(CC#Cc2ccc3c(c2)C[C@@]2(C3)C(=O)Nc3ncccc32)C(=O)C12CCCC2 1.6

----------
systemUnderTest: Calcitonin gene-related peptide type 1 receptor (Homo sapiens, UniProt O60894+Q16602)
Sequence (Q16602 whole entry, one chain of several): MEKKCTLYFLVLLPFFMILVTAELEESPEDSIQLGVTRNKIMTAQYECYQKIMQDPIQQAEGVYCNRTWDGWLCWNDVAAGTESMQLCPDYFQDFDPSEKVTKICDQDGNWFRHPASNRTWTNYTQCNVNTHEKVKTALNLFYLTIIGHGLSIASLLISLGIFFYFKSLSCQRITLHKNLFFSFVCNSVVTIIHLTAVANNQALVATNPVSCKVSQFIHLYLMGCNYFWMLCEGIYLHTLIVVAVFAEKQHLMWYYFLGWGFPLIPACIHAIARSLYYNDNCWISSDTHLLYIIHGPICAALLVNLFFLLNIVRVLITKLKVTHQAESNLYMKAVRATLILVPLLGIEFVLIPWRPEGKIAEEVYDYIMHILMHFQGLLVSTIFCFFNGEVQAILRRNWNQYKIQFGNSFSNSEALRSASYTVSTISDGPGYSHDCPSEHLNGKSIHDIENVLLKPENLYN
assayName: Antagonist activity at CGRP receptor (unknown origin) by cell based cAMP assay
Assay type: functional
recordedEndpoint: IC50 (nM)
Numbers only here, please. The scale is nM.

Identify measured IC50 corresponding to CN1C[C@@](C)(c2cc(F)cc(F)c2)N(CC(=O)Nc2ccc3c(c2)C[C@@]2(C3)C(=O)Nc3ncccc32)C(=O)C12CCCC2 0.097

----------
assayName: Fraction unbound in rhesus monkey CSF
Format: ADME, Macaca mulatta, Cerebrospinal fluid
Provide the reported fraction unbound of each item.

Identify measured fraction unbound corresponding to CC1(C)NC[C@@H](c2cc(F)cc(F)c2)N(CC(=O)Nc2ccc3c(c2)C[C@@]2(C3)C(=O)Nc3ncccc32)C1=O 0.1

Identify measured fraction unbound corresponding to CN1C[C@@](C)(c2cc(F)cc(F)c2)N(CC(=O)Nc2ccc3c(c2)C[C@@]2(C3)C(=O)Nc3ncccc32)C(=O)C1(C)C 0.4
